FACS fluorescence for assorted binders
Molecular target: T1, mouse Claudin-6 (CLDN6) (mouse, UniProt Q9Z262 1-219)
T1 construct: whole, on cells; GFP fusion on engineered HEK293T cells; also called Mouse CLDN6; murine CLDN6
T1 sequence (looked up): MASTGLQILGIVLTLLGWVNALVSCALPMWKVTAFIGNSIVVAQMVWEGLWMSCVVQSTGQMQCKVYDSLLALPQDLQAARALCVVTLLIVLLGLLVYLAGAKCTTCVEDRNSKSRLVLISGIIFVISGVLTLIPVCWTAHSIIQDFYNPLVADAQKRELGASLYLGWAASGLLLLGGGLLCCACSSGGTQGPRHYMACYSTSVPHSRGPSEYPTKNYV
Assay: FACS, 293T clone expressing mouse CLDN6, dose not stated (2nd Ab only 1061.72)
Reply with just the number.

binder	FACS fluorescence
AB9-4 (antibody, V domains shown, humanized) VH: QVQLVQSGAEVKKPGASVKMSCKASGYRFTDYNMHWVRQAPGQGLEWIGYINPNNGGTNYAQKFQGRATLTVDTSTSTAYMELSSLRSEDTAVYYCARDYLYFFDCWGQGTLLTVSS VL: DIQMTQSPSSLSASVGDRVTITCRASQTIGTWLAWYQQKPGKAPKLLIYAAASLADGVPSRFSGSGSGTDFTFTISSLQPEDFVTYYCQQLYSIPRTFGQGTKLEIK	1710

In the following, a different binder is considered.
[Q] In one line, give reported FACS fluorescence of the entry AB4-4 (antibody, V domains shown, humanized) VH: QVQLVQSGAEVKKPGASVKMSCKASGYTFTSYTMHWIRQAPGQGLEWIGYINPSSTYTHYAQKFQGRATLTADTSTSTAYMELSSLRSEDTAVYYCSRGELGGFAYWGQGTLVTVSS VL: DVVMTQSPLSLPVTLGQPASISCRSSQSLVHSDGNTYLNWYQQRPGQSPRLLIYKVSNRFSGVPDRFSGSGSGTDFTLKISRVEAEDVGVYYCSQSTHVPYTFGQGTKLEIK .
[A] 741
